What GI50 was measured for each of the following?
- System: SK-OV-3
- assayExplanation: NCI tumour cell line growth inhibition, 48 h
Calls of active or inactive are those of the source. Rule as the data show it: active = GI50 up to about 1.1 µM and inactive = higher.

Asked: What GI50 value was documented for this compound, N#CC12Cc3cc4c(cc3-c3cccc(c31)CCN2C(=O)c1ccccc1)OCO4 (centres undefined) ?
Given back: > 100 µM (inactive)

Asked: Return reported GI50; argument: `Cc1c(C(=O)O)n2c(C)nnc2c2ccccc12`
Given back: > 100 µM (inactive)

Asked: Please give the measured GI50 for this compound: CCCCC1C(=O)N(c2ccc(S(=O)(=O)Nc3ccccn3)cc2)N(c2ccc(O)c(C(=O)O)c2)C1=O (centres undefined)
Given back: > 100 µM (inactive)

Asked: So what's the measured GI50 for this one? `N#Cc1c(O)cc(=O)n2c1[nH]c1ccccc12`
Given back: > 100 µM (inactive)

Asked: Sample N#CC12CC3(CCC1CCC1(C2)OCCO1)OCCO3 (centres undefined) — what was its GI50?
Given back: > 100 µM (inactive)

Asked: Given the compound `COC(=O)NCCc1n[nH]c2c1C(=O)C=C(N1CCOCC1)C2=O` , what is its reported GI50?
Given back: > 100 µM (inactive)

Asked: Looking for the measured GI50 of `COc1ccc2c(c1)[n+]([O-])c(-c1ccc(Cl)c(Cl)c1)c(N)[n+]2[O-]` , can you help?
Given back: 55.1 µM (inactive)

Asked: What value of GI50 has been reported for the following compound? CC1CC(=O)N(N(C)C)C2(C#N)C(=O)N=C(N)C12C#N (centres undefined)
Given back: > 100 µM (inactive)

Asked: For the compound shown here, `N#CCCN(CCC#N)c1ccc(/C=C2\N=C(c3ccccc3)N(NC(N)=S)C2=O)cc1` , give the reported GI50.
Given back: > 100 µM (inactive)

Asked: What value of measured GI50 is listed for `CC(=O)/C(=C\c1ccccc1)C(=O)Nc1ccccc1` ?
Given back: > 100 µM (inactive)

Asked: I am curious: what GI50 value has been reported for `CCOC(=O)/C(C(=O)Nc1ccc(F)cc1)=C(/N)N1CCCC1` ?
Given back: > 100 µM (inactive)

Asked: Look up GI50: `O=C(c1ccccc1)c1ccc2c(c1)NC(=O)c1ccccc1SSc1ccccc1C(=O)N2`
Given back: > 100 µM (inactive)

Asked: Entry `CCNC(=O)N(CC)CN(CC)C(=O)NCC` : reported GI50 = ?
Given back: > 100 µM (inactive)

Asked: Value lookup for GI50; key = `COc1c(C(=O)NCCN(CCNC(=O)c2cccc(-c3cccc(C(=O)N(C)C)c3OC)c2OC)CCNC(=O)c2cccc(-c3cccc(C(=O)N(C)C)c3OC)c2OC)cccc1-c1cccc(C(=O)N(C)C)c1OC`
Given back: 48.1 µM (inactive)

Asked: Please look up its GI50: `C[C@H](CN1CC(=O)NC(=O)C1)N1CC(=O)NC(=O)C1`
Given back: > 100 µM (inactive)

Asked: For `CC(=N\N)/C(C)=N/N=C(C)/C(C)=N/N=C(C)/C(C)=N/N` , what is its reported GI50?
Given back: > 100 µM (inactive)

Asked: // returns reported GI50 for input `COc1cc2c(cc1O)[C@@H]1Cc3c(cc(OC)c(OC)c3Oc3cc4c(cc3OC)CCN(C)[C@@H]4Cc3ccc(O)cc3)[C@H](C2)N1C`
Given back: > 94 µM (inactive)

Asked: Value lookup for GI50; key = `CC1=C(C(=O)Nc2ccccc2C)C(c2ccc(Cl)cc2)C(C(=O)Nc2ccccc2C)=C(C)N1`
Given back: > 100 µM (inactive)

Asked: For `Cc1ccsc1/C(S)=N\c1ccc(Cl)c(/C=N/OC(C)(C)C)c1` , what is its reported GI50?
Given back: > 100 µM (inactive)

Asked: Find the recorded GI50 belonging to C=C(C)C1CC=C(C)CC1 (centres undefined) and report it.
Given back: 1140 µM (inactive)

Asked: Query: GI50; subject: CC(=O)C(CN(CC(C)C)CC(C)C)C(c1ccccc1)c1c(O)c2ccccc2oc1=O (centres undefined)
Given back: > 100 µM (inactive)

Asked: Endpoint output: GI50 of `Nc1c(Cl)cc(-c2nc3ccccc3s2)cc1Cl` . Value?
Given back: > 100 µM (inactive)

Asked: Fill blank: measured GI50 of the compound `CC1(C)CC(=O)C(Cc2ccccc2)(Cc2ccccc2)C(=O)C1` is ____.
Given back: > 100 µM (inactive)

Asked: Request the reported GI50 associated with `Cn1nc(-c2ccccc2)c2c(/C=C/c3ccc(F)cc3)onc2c1=O`
Given back: 50 µM (inactive)

Asked: Bench note: what GI50 did `CN(C)C(=S)N/N=C\C(=N/NC(=S)N(C)C)c1ccccc1` show?
Given back: 12.3 µM (inactive)

Asked: Which GI50 is reported for this compound? `CCOC(=O)N1CCN(c2c(C)nc(C)nc2O)CC1`
Given back: > 100 µM (inactive)

Asked: Using the record for `O=C1C=C(N2CC2)C(=O)C=C1N1CC1` , report its GI50.
Given back: 0.522 µM (active)

Asked: Quick one: GI50 of O=C(CC(C(=O)c1ccco1)c1ccsc1)c1ccco1 (centres undefined) ?
Given back: > 100 µM (inactive)

Asked: What does the data say about its GI50? Entry: `S=C(Nc1cccc(Cl)c1)Nc1ccccn1`
Given back: > 100 µM (inactive)
